system: Rattus norvegicus; assay: Anti-inflammatory activity in Rattus norvegicus Wistar albino (rat) assessed as carrageenan-induced paw volume at 100 mg/kg, po administered 1 hr prior to carrageenan-challenge measured at 5 hr (reference value: 1.24 +/- 0.0754 mm3); type: functional

{"columns": ["structureNotation", "measuredOn", "Activity / mm3"],
 "data": [
  ["COc1ccc(-n2c(-c3ccccc3)nc3ccc(Cl)cc3c2=O)cc1", "Rattus norvegicus", 1.175],
  ["O=c1c2cc(Cl)ccc2nc(-c2ccccc2)n1Cc1ccc(Cl)cc1", "Rattus norvegicus", 1.1825],
  ["O=c1c2cc(Cl)ccc2nc(-c2ccccc2)n1-c1cccc(Cl)c1", "Rattus norvegicus", 1.125],
  ["O=c1c2cc(Cl)ccc2nc(-c2ccccc2)n1-c1ccc(Cl)cc1", "Rattus norvegicus", 1.1825],
  ["CN(C)CCn1c(-c2ccccc2)nc2ccc(Cl)cc2c1=O", "Rattus norvegicus", 1.215],
  ["O=c1c2cc(Cl)ccc2nc(-c2ccccc2)n1-c1ccc(F)cc1", "Rattus norvegicus", 1.21],
  ["O=c1c2cc(Cl)ccc2nc(-c2ccccc2)n1Cc1ccc(F)cc1", "Rattus norvegicus", 1.2875],
  ["O=c1c2cc(Cl)ccc2nc(-c2ccccc2)n1-c1ccc(F)c(Cl)c1", "Rattus norvegicus", 1.25]
]}

###

system: Escherichia coli; experiment: Antimicrobial activity against Escherichia coli ATCC 25922 after 24 hr by broth micro dilution assay; assay type: functional; conditions: ATCC 25922, 24 h
// NB: equality with 2 µg/mL counts as Not fulfilled; only MIC strictly below is Fulfilled

{"columns": ["structureNotation", "group"],
 "data": [
  ["COc1ccc(-n2c(-c3ccccc3)nc3ccc(Cl)cc3c2=O)cc1", "Fulfilled"],
  ["O=c1c2cc(Cl)ccc2nc(-c2ccccc2)n1Cc1ccc(Cl)cc1", "Fulfilled"],
  ["O=c1c2cc(Cl)ccc2nc(-c2ccccc2)n1-c1ccc(Cl)cc1", "Not fulfilled"],
  ["O=c1c2cc(Cl)ccc2nc(-c2ccccc2)n1Cc1ccc(F)cc1", "Fulfilled"],
  ["O=c1c2cc(Cl)ccc2nc(-c2ccccc2)n1-c1cccc(Cl)c1", "Not fulfilled"],
  ["O=c1c2cc(Cl)ccc2nc(-c2ccccc2)n1-c1ccc(F)cc1", "Fulfilled"],
  ["O=c1c2cc(Cl)ccc2nc(-c2ccccc2)n1-c1ccc(F)c(Cl)c1", "Not fulfilled"],
  ["CN(C)CCn1c(-c2ccccc2)nc2ccc(Cl)cc2c1=O", "Not fulfilled"]
]}

Values were extracted from ChEMBL document CHEMBL3045939.
